# SYSTEM_TESTED: Chitin synthase (Candida albicans, UniProt P30572+P23316+P30573)
# TEST_NAME: Inhibition of Candida albicans chitin synthase
# Type: protein assay
READOUT_LABEL: pIC50

CN(CCCC#CC(C)(C)C)c1cccc2c1CCC(=O)N2; 4.523
CN(Cc1ccc(C#CC(C)(C)C)cc1)c1cccc2c1CCC(=O)N2; 4.681
CC(C)(C)C#C/C=C/CNc1cccc2c1CCC(=O)N2; 3.6

1: CCN(C/C=C/C#CC(C)(C)C)c1cccc2c1CCC(=O)N2
2: CC(C)(C)C#C/C=C/CN(Cc1ccccc1)c1cccc2c1CCC(=O)N2
Q: Thinking about recorded pIC50 values, which is higher, 1 or 2 ? Identify your selection by its label.
A: 1

* * *

# SYSTEM_TESTED: Chitin synthase (Candida albicans, UniProt P30572+P23316+P30573)
# TEST_NAME: Inhibition of Candida albicans chitin synthase
# Type: protein assay
READOUT_LABEL: pIC50

Use these answered entries as a reference point.
CCCCN(C/C=C/C#CC(C)(C)C)c1cccc2c1CCC(=O)N2; 5.985
CN(CC#CC#CC(C)(C)C)c1cccc2c1CC(N)C(=O)N2 (stereo unspecified); 4.401
CN(CC#CC#CC(C)(C)C)c1cccc2c1CC(O)C(=O)N2 (stereo unspecified); 5.015
CN(C/C=C/C#CC(C)(C)C)c1cccc2c1CCC(=O)N2; 5.029

P: CC(C)N(C/C=C/C#CC(C)(C)C)c1cccc2c1CCC(=O)N2
Q: CN(CC#CC#CC(C)(C)O)c1cccc2c1CCC(=O)N2
Q: Between the two listed entries P and Q , which has its pIC50 at the higher number? Returns: label corresponding to the selected item.
A: P
(P: 5.421, Q: 3.143)

* * *

# SYSTEM_TESTED: Chitin synthase (Candida albicans, UniProt P30572+P23316+P30573)
# TEST_NAME: Inhibition of Candida albicans chitin synthase
# Assay type: protein assay
READOUT_LABEL: pIC50

CCOP(=O)(OCC)OC1Cc2c(cccc2N(C)CC#CC#CC(C)(C)C)NC1=O (stereo unspecified); 5.769
CCCCCN(C/C=C/C#CC(C)(C)C)c1cccc2c1CCC(=O)N2; 5.506
CC(C)[C@H](N)C(=O)OC1Cc2c(cccc2N(C)CC#CC#CC(C)(C)C)NC1=O (stereo partly specified); 4.422
CCCN(C/C=C/C#CC(C)(C)C)c1cccc2c1CCC(=O)N2; 5.679
CN(CC#CC#CC(C)(C)C)c1cccc2c1CCC(=O)N2; 6.323
CCC#CC#CCN(C)c1cccc2c1CCC(=O)N2; 4.529
